protein stability index values by entry
Tested on: Saccharomyces cerevisiae
experiment: protein stability index of tFT-peptide fusion (C-terminal peptide) (PSI (0-1 scale)); higher = more stable (slower turnover)
assay conditions: genetic background: wild type; temperature: 30 C

monomer_sequence=SLVVMGSLWLRI measured_attribute="protein stability index" meas_value=0.415
monomer_sequence=CFVRCFVSIRLF measured_attribute="protein stability index" meas_value=0.133
monomer_sequence=AARSCRCSSLIG measured_attribute="protein stability index" meas_value=0.774

QUERY: Please give measured protein stability index of the following entry: KKEQKKKNKNDR
RESULT: 0.669

----------
Tested on: Saccharomyces cerevisiae;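 note: PSI is a weighted mean of sequencing reads over stability bins, variants kept only with over 10 reads, mCherry proximal and sfGFP distal, peptide attached via GGGS linker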
experiment: protein stability index of tFT-peptide fusion (C-terminal peptide) (PSI (0-1 scale)); higher = more stable (slower turnover)
assay conditions: genetic background: wild type; temperature: 30 C
measured attribute: protein stability index
Lab note: jot the number down without any unit.

Observe how each entry below is paired with its result.
monomer_sequence=LCRSSIILTLLL meas_value=0.586
monomer_sequence=GLDEGCRVGEEV meas_value=0.643
monomer_sequence=PPYAPSPSPPSH meas_value=0.694

QUERY: Please give measured protein stability index of the following entry: ECIKVRGQWREI
RESULT: 0.662

QUERY: Please give measured protein stability index of the following entry: LAGLAVASVRRE
RESULT: 0.683

QUERY: Please give measured protein stability index of the following entry: LSRPTSWLLSFL
RESULT: 0.777
